# System Tested: Histamine H1 receptor (Cavia porcellus)
# Procedure Details: Displacement of [3H]mepyramine from histamine H1 receptor in guinea pig cerebellum membranes
# Type: cell membranes, Membrane
The following compounds are listed with their measured IC50 values.

These solved cases illustrate the format of a correct answer.
[
  {
    "Compound": "O=C(O)c1ccccc1OCCN1CCC(c2cn(Cc3ccco3)c3cc(F)ccc23)CC1",
    "IC50": "37 nM (antagonist)"
  },
  {
    "Compound": "CCOCCn1cc(C2CCN(Cc3cccc(OCC(=O)O)c3)CC2)c2ccccc21",
    "IC50": "130 nM (antagonist)"
  }
]

Kindly review the next compound as well.
Tell me the measured IC50 of "CCOCCn1cc(C2CCN(CCOc3ccccc3C(=O)O)CC2)c2cc(OC)ccc21" , please.
155 nM (antagonist)

----------
# Tested on: Rattus norvegicus
# Procedure Details: Inhibition of increase in histamine-induced cutaneous vascular permeability in orally dosed Wistar rat model after 8 hrs
# Format: functional
# Condition Details: po
The following molecules are listed with their measured ED50 values.

These solved cases illustrate the format of a correct answer.
[
  {
    "Structure As Smiles": "COc1ccc(CN2CCC(c3cn(Cc4cccs4)c4ccccc34)CC2)cc1C(=O)O",
    "ED50": "0.56 mg/kg (antagonist)"
  },
  {
    "Structure As Smiles": "O=C(O)c1ccccc1OCCN1CCC(c2cn(CC3CC3)c3cc(F)ccc23)CC1",
    "ED50": "0.5 mg/kg (antagonist)"
  },
  {
    "Structure As Smiles": "CCOCCn1cc(C2CCN(CCOc3ccccc3C(=O)O)CC2)c2cc(OC)ccc21",
    "ED50": "0.08 mg/kg (antagonist)"
  }
]

Kindly review the next molecule as well.
Tell me the measured ED50 of "CCCCn1cc(C2CCN(CCOc3ccccc3C(=O)O)CC2)c2ccc(F)cc21" , please.
0.14 mg/kg (antagonist)

----------
The following molecules are listed with their measured ED50 values.
# System Tested: Histamine H1 receptor (Mus musculus)
# Procedure Details: Ex vivo displacement of [3H]mepyramine from brain histamine H1 receptor in orally dosed Swiss Albino mouse
# Format: functional, organism-based

These solved cases illustrate the format of a correct answer.
[
  {
    "Structure As Smiles": "O=C(O)c1ccccc1OCCN1CCC(c2cn(CC3CC3)c3ccccc23)CC1",
    "ED50": "> 100 mg/kg"
  },
  {
    "Structure As Smiles": "O=C(O)c1ccccc1OCCN1CCC(c2cn(CCC3OCCO3)c3ccccc23)CC1",
    "ED50": "> 100 mg/kg"
  }
]

Kindly review the next molecule as well.
Tell me the measured ED50 of "CCOCCn1cc(C2CCN(CCOc3ccccc3C(=O)O)CC2)c2cc(OC)ccc21" , please.
> 100 mg/kg

----------
# System Tested: Histamine H1 receptor (Cavia porcellus, UniProt P31389)
# Sequence (P31389 whole entry): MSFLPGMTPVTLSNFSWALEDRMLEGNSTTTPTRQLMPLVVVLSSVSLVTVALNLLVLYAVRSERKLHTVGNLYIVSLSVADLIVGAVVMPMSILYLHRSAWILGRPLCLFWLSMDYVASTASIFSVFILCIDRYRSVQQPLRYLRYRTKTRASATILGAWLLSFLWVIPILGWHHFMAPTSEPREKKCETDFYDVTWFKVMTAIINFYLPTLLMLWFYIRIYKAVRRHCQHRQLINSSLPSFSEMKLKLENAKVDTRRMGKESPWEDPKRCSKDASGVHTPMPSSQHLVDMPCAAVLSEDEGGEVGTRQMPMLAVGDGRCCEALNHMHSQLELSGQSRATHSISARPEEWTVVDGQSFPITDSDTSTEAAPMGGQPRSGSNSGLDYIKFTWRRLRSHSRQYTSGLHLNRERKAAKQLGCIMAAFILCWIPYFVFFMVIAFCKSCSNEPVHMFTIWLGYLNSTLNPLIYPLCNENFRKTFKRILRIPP
# Procedure Details: Displacement of [3H]mepyramine from histamine H1 receptor in guinea pig cerebellum membranes
# Type: cell membranes, Membrane
Quantity Measured: IC50

Tell me the measured IC50 of "O=C(O)c1cccc(CN2CCC(c3cn(Cc4ccco4)c4ccccc34)CC2)c1" , please.
87 nM (antagonist)

Tell me the measured IC50 of "O=C(O)c1ccccc1OCCN1CCC(c2cn(CCc3ccccn3)c3ccccc23)CC1" , please.
570 nM (antagonist)

Tell me the measured IC50 of "CCOCCn1cc(C2CCN(CCOc3ccccc3C(=O)O)CC2)c2ccc(C(F)(F)F)cc21" , please.
> 500 nM

Tell me the measured IC50 of "CCOCCn1cc(C2CCN(CCOc3ccc(C(C)=O)cc3C(=O)O)CC2)c2ccccc21" , please.
219 nM (antagonist)

Tell me the measured IC50 of "CCOCCn1cc(C2CCN(CCOc3ccc(C)cc3C(=O)O)CC2)c2ccccc21" , please.
221 nM (antagonist)

Tell me the measured IC50 of O=C(O)c1ccccc1OCCN1CCC(c2cn(CCC3COCCO3)c3ccccc23)CC1 (centres undefined) , please.
390 nM (antagonist)

Tell me the measured IC50 of "CCOCCn1cc(C2CCN(CCOc3ccccc3C(=O)O)CC2)c2ccc(F)cc21" , please.
76 nM (antagonist)

Tell me the measured IC50 of "COCCn1cc(C2CCN(CCOc3ccccc3C(=O)O)CC2)c2ccc(F)cc21" , please.
140 nM (antagonist)

Tell me the measured IC50 of "CCOCCn1cc(C2CCN(CCOc3ccccc3C(=O)O)CC2)c2cc(F)ccc21" , please.
100 nM (antagonist)
